Items are presented alongside their recorded EC50.
Target: Retinoic acid receptor gamma (Homo sapiens, UniProt P13631)
Assay: Transcriptional activation of retinoic acid receptor RAR gamma; not active

1) CC1=C(/C=C/C#Cc2cccc(C(=O)O)c2)C(C)(C)CCC1 | > 10 µM

Please find the next compound below.
input: Query: EC50; subject: "CC1=C(/C=C/C#Cc2ccccc2C(=O)O)C(C)(C)CCC1"
output: > 10 µM

---

Target: Retinoic acid receptor RXR-alpha (Homo sapiens, UniProt P19793)
Sequence (P19793 whole entry): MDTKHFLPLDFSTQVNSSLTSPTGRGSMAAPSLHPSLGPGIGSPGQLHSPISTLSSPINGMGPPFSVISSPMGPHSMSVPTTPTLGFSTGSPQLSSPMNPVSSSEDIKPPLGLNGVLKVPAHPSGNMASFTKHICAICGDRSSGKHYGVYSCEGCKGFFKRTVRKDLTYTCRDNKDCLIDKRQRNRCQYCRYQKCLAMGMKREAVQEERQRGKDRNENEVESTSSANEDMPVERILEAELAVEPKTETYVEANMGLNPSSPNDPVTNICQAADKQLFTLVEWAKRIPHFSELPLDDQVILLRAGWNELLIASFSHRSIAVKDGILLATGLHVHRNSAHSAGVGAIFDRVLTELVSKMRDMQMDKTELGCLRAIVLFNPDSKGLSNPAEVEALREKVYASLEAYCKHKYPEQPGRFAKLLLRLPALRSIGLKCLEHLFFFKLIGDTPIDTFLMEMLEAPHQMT
Assay: Transcriptional activation of retinoid X receptor RXR alpha; not active
Value Kind: EC50 (µM)
Entry rule: numbers only, all in µM.

1. C/C(=C\c1ccc(C(=O)O)cc1)c1ccc2c(c1)C(C)(C)CCC2(C)C | 10

Switching to the query record.
input: Please provide the recorded EC50 for "CC1=C(/C=C/C#Cc2ccc(C(=O)O)cc2)C(C)(C)CCC1" , tested on Retinoic acid receptor RXR-alpha (Homo sapiens, UniProt P19793).
output: 10

---

Biological target: Retinoic acid receptor beta (Homo sapiens)
Sequence (P10826 whole entry): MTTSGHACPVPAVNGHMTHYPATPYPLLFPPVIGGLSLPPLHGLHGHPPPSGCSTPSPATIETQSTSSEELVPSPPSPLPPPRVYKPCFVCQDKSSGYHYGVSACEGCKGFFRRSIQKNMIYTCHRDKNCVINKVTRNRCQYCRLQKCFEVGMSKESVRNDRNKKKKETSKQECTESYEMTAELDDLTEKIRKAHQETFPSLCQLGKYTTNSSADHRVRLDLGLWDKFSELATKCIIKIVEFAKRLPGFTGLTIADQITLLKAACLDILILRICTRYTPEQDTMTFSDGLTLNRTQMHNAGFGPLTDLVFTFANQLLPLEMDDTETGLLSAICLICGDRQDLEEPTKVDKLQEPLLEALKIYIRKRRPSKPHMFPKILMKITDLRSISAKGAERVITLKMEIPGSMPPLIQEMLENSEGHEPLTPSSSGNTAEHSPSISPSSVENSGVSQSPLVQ
Assay: Transcriptional activation of retinoic acid receptor RAR beta
Value Kind: EC50 (nM)
I only need the number, in nM, no unit after it.

1) CC1=C(C#Cc2ccc3cc(C(=O)O)ccc3c2)C(C)(C)CCC1 | 355

input: Recorded EC50 for "CC1=C(/C=C/C#Cc2ccc(C(=O)O)cc2)C(C)(C)CCC1" , please?
output: 2

---

Target: Retinoic acid receptor gamma (Homo sapiens, UniProt P13631)
Sequence (P13631 whole entry): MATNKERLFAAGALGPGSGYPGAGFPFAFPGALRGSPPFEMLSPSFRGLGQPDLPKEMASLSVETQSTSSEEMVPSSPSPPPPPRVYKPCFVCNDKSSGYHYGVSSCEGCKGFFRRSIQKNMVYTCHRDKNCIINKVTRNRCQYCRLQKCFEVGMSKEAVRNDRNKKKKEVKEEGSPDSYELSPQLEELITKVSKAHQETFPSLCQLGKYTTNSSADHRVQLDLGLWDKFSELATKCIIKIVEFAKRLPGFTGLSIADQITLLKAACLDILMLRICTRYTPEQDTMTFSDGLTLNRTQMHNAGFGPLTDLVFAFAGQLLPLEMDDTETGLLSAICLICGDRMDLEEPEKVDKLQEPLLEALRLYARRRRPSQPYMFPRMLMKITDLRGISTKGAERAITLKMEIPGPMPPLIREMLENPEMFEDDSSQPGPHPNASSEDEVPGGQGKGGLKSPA
Assay: Transcriptional activation of retinoic acid receptor RAR gamma
Value Kind: pEC50
Conceptually, pEC50 converts a concentration in mol/L into minus its log10.

input: Look up pEC50 for this compound: "CC1=C(/C=C/C#Cc2ccc(C(=O)O)cc2)C(C)(C)CCC1"
output: 8.00

---

Target: Retinoic acid receptor alpha (Homo sapiens)
Sequence (P10276 whole entry): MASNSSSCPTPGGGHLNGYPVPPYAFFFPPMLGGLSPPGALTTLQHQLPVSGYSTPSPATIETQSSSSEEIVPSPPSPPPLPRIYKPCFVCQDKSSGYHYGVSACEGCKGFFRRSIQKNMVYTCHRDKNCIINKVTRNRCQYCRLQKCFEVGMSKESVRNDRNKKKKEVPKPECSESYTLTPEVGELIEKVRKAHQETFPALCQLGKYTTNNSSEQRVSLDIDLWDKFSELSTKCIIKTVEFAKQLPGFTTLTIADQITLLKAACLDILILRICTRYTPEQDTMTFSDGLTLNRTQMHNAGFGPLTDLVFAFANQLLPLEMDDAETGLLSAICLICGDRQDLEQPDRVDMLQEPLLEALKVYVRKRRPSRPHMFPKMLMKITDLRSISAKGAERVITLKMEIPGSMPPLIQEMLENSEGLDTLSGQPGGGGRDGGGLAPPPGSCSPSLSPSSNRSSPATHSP
Experiment: Transcriptional activation of retinoic acid receptor RAR alpha
Value Kind: pEC50
Please note pEC50 is a logarithmic value: minus log10 of concentration in mol/L. Answer with that number alone.

input: # get_value(readout= pEC50, system= Retinoic acid receptor alpha (Homo sapiens)) for "CC1=C(/C=C/C#Cc2ccc(C(=O)O)cc2)C(C)(C)CCC1"
output: 6.22

---

Molecular target: UniProt:P10826
Assay: Transcriptional activation of retinoic acid receptor RAR beta; not active
Below, each entry is listed alongside its reported EC50.

1) CC1=C(/C=C/C#Cc2ccccc2C(=O)O)C(C)(C)CCC1 | > 10 µM

Below: the item to evaluate.
input: Form field: EC50 recorded for "CC1=C(/C=C/C#Cc2cccc(C(=O)O)c2)C(C)(C)CCC1" with UniProt:P10826 (enter value)
output: > 10 µM

---

Target: Retinoic acid receptor RXR-alpha (Homo sapiens, UniProt P19793)
Assay: Transcriptional activation of retinoid X receptor RXR alpha; not active
pEC50: −log10 of the molar value.
Value Kind: pEC50

1) CC1=C(C#Cc2ccc3cc(C(=O)O)ccc3c2)C(C)(C)CCC1 | < 5.00
2) CC1=C(/C=C/C#Cc2ccccc2C(=O)O)C(C)(C)CCC1 | < 5.00

Attention now shifts to the item below.
input: Would you mind telling me what pEC50 value was observed for "CC1=C(/C=C/C#Cc2cccc(C(=O)O)c2)C(C)(C)CCC1" ?
output: < 5.00

Provenance of the data: ChEMBL document CHEMBL1128846
